From: PubChem BioAssay (NCI)

system: HCT-15 colon; assay: NCI tumour cell line growth inhibition, 48 h
RESULT_TYPE: GI50

A selection of reference data follows.
{"columns": ["MOLECULE", "RESULT_TYPE", "OBSERVED_MEASUREMENT"],
 "data": [
  ["CN1CCN(C(=O)[C@@]2(C)CC[C@]3(C)CC[C@]4(C)C(=CC[C@@H]5[C@@]6(C)CC[C@H](OC(=O)c7cccnc7)C(C)(C)[C@@H]6CC[C@]54C)[C@@H]3C2)CC1", "GI50", "1.4 µM"],
  ["COc1ccc2[nH]cc(C3(c4c[nH]c5ccc(OC)cc45)C(=O)Nc4ccc(Cl)cc43)c2c1", "GI50", "7.09 µM"],
  ["CCN(CC)CCOc1ccc(NC(=O)C(C(C)C)N2C(=O)/C(=C/c3ccc(Br)cc3)SC2=S)cc1 (stereo unspecified)", "GI50", "2.01 µM"]
]}

Record request: GI50 value, item `Cc1cc(C(=O)CC(Cl)=C(Cl)Cl)c(Cl)cc1Cl` 20 µM

Try `COc1ccccc1-c1ccc2c(N)c(C(=O)c3ccc4c(c3)OCO4)sc2n1` next. 4.08 µM

Try COc1ccc(-c2nsc3c2NC(=O)CC3c2cccc(F)c2)cc1 (stereo unspecified) next. 2.41 µM

* * *

Each entry below carries its reported TGI.
tested on: MCF7 breast; experiment: NCI tumour cell line growth inhibition, 48 h

A selection of reference data follows.
{"columns": ["COMPOUND_STRING", "TGI"],
 "data": [
  ["Nc1nc(N)c2c(-c3ccccc3)ccnc2n1", "> 100 µM"],
  ["COc1c(N2CCCCC2)c2c(=O)c3ccccc3oc2c2c3ccccc3n(C)c12", "> 100 µM"],
  ["C[C@@]12C[C@@H](c3ccccc3O1)N1CCCSC1=N2", "> 100 µM"]
]}

Record request: TGI value, item `CN(C)c1ccc2cc3c(cc2c1)Oc1ccccc1N3.[Cl][Zn][Cl]` 3.91 µM

* * *

tested on: HOP-62 NSCLC; assay: NCI tumour cell line growth inhibition, 48 h
RESULT_TYPE: GI50

{"columns": ["MOLECULE", "GI50"],
 "data": [
  ["CCCCCCCCCCCCSC1=CC(=O)C=CC1=O", "9.23 µM"],
  ["Cc1cnc(-c2ccc(-c3ccc(NC(=O)Nc4cccc(C(F)(F)F)c4)cc3F)c3c2C(=O)NC3)[nH]1", "3.55 µM"],
  ["CN(CCCCCCCCNc1ccnc2ccccc12)Cc1ccc(-c2ccc(-c3ccc(C#N)cc3)s2)cc1", "0.685 µM"],
  ["CCOC1Oc2ccccc2C(=O)/C1=C\\Nc1ccc(C(=O)O)c(O)c1 (stereo not given)", "32.4 µM"]
]}

With those in mind, consider the next molecule.
Record request: GI50 value, item `Cc1ccc2c(c1)C(=O)/C(=C/c1cccc(OCC(=O)c3ccc(Cl)cc3)c1)CS2` 13 µM

* * *

tested on: HT29 colon; assay: NCI tumour cell line growth inhibition, 48 h
Each entry below carries its reported GI50.

A selection of reference data follows.
{"columns": ["COMPOUND_STRING", "OBSERVED_MEASUREMENT"],
 "data": [
  ["COc1cc2c(cc1OC)-c1c(c3ccc([N+](=O)[O-])cc3c(=O)n1CCCN=[N+]=[N-])C2=O", "> 100 µM"],
  ["CCc1c2c(nc3ccc(OC(=O)OCc4ccc(B5OC(C)(C)C(C)(C)O5)cc4)cc13)-c1cc3c(c(=O)n1C2)COC(=O)[C@]3(O)CC", "0.0436 µM"],
  ["Cc1nccc2c3ccc(OCc4cn(-c5ccc(Br)cc5)nn4)cc3n(CCCc3ccccc3)c12", "2.9 µM"]
]}

With those in mind, consider the next molecule.
Record request: GI50 value, item `CCN(CC)CCNc1ccc(N=Nc2cnc3ccccc3c2)c2ccccc12` 1.38 µM

* * *

test system: A498 renal; assay: NCI tumour cell line growth inhibition, 48 h
Each entry below carries its reported TGI.
Answer in µM, number only, no unit symbol.

{"columns": ["MOLECULE", "TARGET", "UNIT_TEXT", "TGI"],
 "data": [
  ["CC(NNC(=S)N1CCCC1)c1cccnn1 (stereo not given)", "A498 renal", "µM", 97.5]
]}

Record request: TGI value, item `Cn1c2ccccc2c2c(=O)n(CCCC(=O)NCCc3cnc[nH]3)c3c(-c4ccccc4)nnn3c21` 15.2

* * *

Each entry below carries its reported TGI.
tested on: IGROV1 ovarian; experiment: NCI tumour cell line growth inhibition, 48 h
Answer in µM, number only, no unit symbol.

A selection of reference data follows.
{"columns": ["COMPOUND", "UNIT_TEXT", "OBSERVED_MEASUREMENT"],
 "data": [
  ["O=C(N/N=C/c1cc(Cl)cc(Cl)c1[O-])c1ccccc1O.O=C(N/N=C/c1cc(Cl)cc(Cl)c1[O-])c1ccccc1O.[Fe+2]", "µM", 56.5],
  ["O=[N+]([O-])c1cc(C(F)(F)F)cc2n[se]nc12", "µM", 14.6],
  ["CC(=O)c1ccc(Nc2nc3ccccc3c3occc23)cc1", "µM", 36.2],
  ["N#Cc1ccc(O)c(C2=NCC(c3ccc(-c4ccccc4)cc3)O2)c1 (configuration not stated)", "µM", 14.3],
  ["CCN(CC)CCCNc1nccc2c(C)c3[nH]c4ccncc4c(=O)c3cc12", "µM", 21.7],
  ["Cc1ccc(/C=C2\\CCS(=O)(=O)c3ccccc3C2=O)cc1", "µM", 28.7],
  ["CC(=O)c1sc2c(c1OC(=O)c1ccccc1)c(=O)n(-c1ccccc1)c(=S)n2-c1ccccc1", "µM", 54.5],
  ["CN(C)C[C@@H]1CCn2cc(c3ccccc32)C2=C(C(=O)NC2=O)c2cn(c3ccccc23)CCO1", "µM", 8.49]
]}

Record request: TGI value, item C=C1C(=O)O[C@H]2C1C[C@H](O)/C(C)=C/CC[C@@]1(C)O[C@H]21 (some centres not stated) 28.3

* * *

tested on: HL-60(TB) leukemia; assay: NCI tumour cell line growth inhibition, 48 h
RESULT_TYPE: TGI

A selection of reference data follows.
{"columns": ["COMPOUND", "TARGET", "TGI"],
 "data": [
  ["CSc1c(S(C)=O)c2ccccc2n1C (stereo unspecified)", "HL-60(TB) leukemia", "> 100 µM"],
  ["O=C(CC1(O)C(=O)Nc2c(Cl)cc(Cl)cc21)c1ccc([N+](=O)[O-])cc1 (stereo unspecified)", "HL-60(TB) leukemia", "> 52.5 µM"],
  ["CCc1nc(N)nc(N)c1-c1ccc(N(C)Cc2ccccc2)c([N+](=O)[O-])c1", "HL-60(TB) leukemia", "5.88 µM"],
  ["O=C(O)c1ccc(Nc2nc3ccc(C(F)(F)F)cc3nc2-c2ccccc2)cc1", "HL-60(TB) leukemia", "66.3 µM"],
  ["N#CCCN(c1ccc(C=Nc2ccc(C(=O)O)cc2)cc1)S(=O)(=O)c1ccccc1", "HL-60(TB) leukemia", "> 100 µM"],
  ["Cc1cc(S(=O)(=O)Nc2nnc3c(Cl)cc(C(F)(F)F)cn23)c(S)cc1Cl", "HL-60(TB) leukemia", "> 100 µM"],
  ["CC(/C=C1\\CCC(CN(C)C)C1=O)c1cccc(Br)c1 (stereo unspecified)", "HL-60(TB) leukemia", "10.8 µM"],
  ["CC1OC(OC2C(O)C(OCCc3ccc(O)c(O)c3)OC(CO)C2OC(=O)/C=C/c2ccc(O)c(O)c2)C(O)C(O)C1O (stereo unspecified)", "HL-60(TB) leukemia", "> 100 µM"]
]}

Record request: TGI value, item `CC1=C(C(=O)Nc2ccccc2C)C(c2ccccc2O)C(C(=O)Nc2ccccc2C)=C(C)N1` 61.2 µM

Try CN(CCO)c1nc(=O)c2c(n1C1OC(CO)C(O)C(O)C1O)CCCC2 (stereo unspecified) next. > 100 µM

Try `CCN(CC)CCCNC(=O)c1ccccc1Nc1c(Cl)cccc1Cl` next. 12.5 µM

* * *

tested on: PC-3 prostate; experiment: NCI tumour cell line growth inhibition, 48 h
Each entry below carries its reported TGI.
Answer in µM, number only, no unit symbol.

{"columns": ["MOLECULE", "TARGET", "UNIT_TEXT", "TGI"],
 "data": [
  ["CCOP(=O)(OCC)C(NC(c1ccccc1)c1ccccc1)c1ccsc1 (stereo not given)", "PC-3 prostate", "µM", 23.9],
  ["CC(C)(CN1CCCCC1)C(=O)CC(SCCS(=O)(=O)O)c1ccccc1 (stereo not given)", "PC-3 prostate", "µM", 77.1]
]}

With those in mind, consider the next molecule.
Record request: TGI value, item `CCCc1cn2c(/C=N/N=C(N)N)c(-c3ccc([N+](=O)[O-])cc3)nc2s1` 7.01
